Biological target: Platelet-derived growth factor receptor alpha (Homo sapiens, UniProt P16234, D842V)
Sequence (P16234 24-1089 D842V limits assumed): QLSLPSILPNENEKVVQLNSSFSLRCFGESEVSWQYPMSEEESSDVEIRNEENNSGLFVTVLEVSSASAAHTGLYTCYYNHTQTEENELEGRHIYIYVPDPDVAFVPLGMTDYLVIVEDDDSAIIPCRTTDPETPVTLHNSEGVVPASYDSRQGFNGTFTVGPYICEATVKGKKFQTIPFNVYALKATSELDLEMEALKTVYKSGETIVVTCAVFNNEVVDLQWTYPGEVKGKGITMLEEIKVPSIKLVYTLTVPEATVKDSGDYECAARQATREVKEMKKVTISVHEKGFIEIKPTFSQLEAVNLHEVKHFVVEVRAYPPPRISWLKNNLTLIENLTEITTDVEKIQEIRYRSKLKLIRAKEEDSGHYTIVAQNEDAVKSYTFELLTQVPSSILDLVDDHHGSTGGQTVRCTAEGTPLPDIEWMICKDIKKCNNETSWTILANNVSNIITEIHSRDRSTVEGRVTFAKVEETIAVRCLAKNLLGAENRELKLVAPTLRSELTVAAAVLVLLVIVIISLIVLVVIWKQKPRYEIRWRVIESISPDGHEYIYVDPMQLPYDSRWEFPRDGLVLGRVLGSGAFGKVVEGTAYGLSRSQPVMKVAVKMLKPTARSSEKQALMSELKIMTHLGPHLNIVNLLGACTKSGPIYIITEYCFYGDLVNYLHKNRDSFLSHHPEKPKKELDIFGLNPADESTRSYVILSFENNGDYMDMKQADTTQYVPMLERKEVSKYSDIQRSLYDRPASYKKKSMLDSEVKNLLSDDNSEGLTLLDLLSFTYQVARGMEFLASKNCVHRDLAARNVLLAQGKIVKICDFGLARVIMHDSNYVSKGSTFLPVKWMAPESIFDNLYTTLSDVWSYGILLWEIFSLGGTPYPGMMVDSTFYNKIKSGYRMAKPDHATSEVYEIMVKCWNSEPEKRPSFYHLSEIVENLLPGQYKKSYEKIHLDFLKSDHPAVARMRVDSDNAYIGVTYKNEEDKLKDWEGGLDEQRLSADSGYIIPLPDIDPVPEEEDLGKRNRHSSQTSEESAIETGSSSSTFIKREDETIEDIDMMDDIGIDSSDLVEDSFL
Experiment: Inhibition of human PDGFRalpha D842V mutant (550 to end residues) using GGMEDIYFEFMGG as substrate measured after 40 mins in presence of [gamma33P]ATP by radiometric scintillation counting analysis
experimentalEndpoint: IC50

State its IC50 for this compound: CN(C)c1ccc(C(=O)Nc2cccc(NC(=O)COc3ccc4c(=O)ccoc4c3)c2)cc1
> 10 µM

----------
Target: Serine/threonine-protein kinase pim-2 (Homo sapiens)
Test: Inhibition of recombinant human Pim2 (2 to end residues) using RSRHSSYPAGT as substrate incubated for 40 mins in presence of [gamma33P]ATP by radiometric scintillation counting analysis
pIC50: −log10 of the molar value.
experimentalEndpoint: pIC50

Give pIC50 for this entry on Serine/threonine-protein kinase pim-2 (Homo sapiens): CN(C)c1ccc(C(=O)Nc2cccc(NC(=O)COc3ccc4c(=O)ccoc4c3)c2)cc1
< 5.00

----------
Target: Receptor-interacting serine/threonine-protein kinase 2 (Homo sapiens, UniProt O43353)
Assay: Inhibition of recombinant human RIPK2 (1 to 299 residues) using MBP as substrate incubated for 120 mins in presence of [gamma33P]ATP by radiometric scintillation counting analysis
pIC50: −log10 of the molar value.
experimentalEndpoint: pIC50

Specify pIC50 for CN(C)c1ccc(C(=O)Nc2cccc(NC(=O)COc3ccc4c(=O)ccoc4c3)c2)cc1 and stop.
< 5.00

----------
Target: PI3-kinase p110-alpha/p85-alpha (Homo sapiens, UniProt P42336, E542K)
Test: Inhibition of recombinant human full length PI3K p110alpha/p85alpha E542K mutant using phosphatidylinositol 4,5-bisphosphate as substrate incubated for 40 mins in presence of [gamma33P]ATP by radiometric scintillation counting analysis
pIC50: −log10 of the molar value.
experimentalEndpoint: pIC50

Complete the entry with pIC50 for CN(C)c1ccc(C(=O)Nc2cccc(NC(=O)COc3ccc4c(=O)ccoc4c3)c2)cc1
< 5.00

----------
Target: Tyrosine-protein kinase ABL2 (Homo sapiens, UniProt P42684)
Sequence (P42684 whole entry): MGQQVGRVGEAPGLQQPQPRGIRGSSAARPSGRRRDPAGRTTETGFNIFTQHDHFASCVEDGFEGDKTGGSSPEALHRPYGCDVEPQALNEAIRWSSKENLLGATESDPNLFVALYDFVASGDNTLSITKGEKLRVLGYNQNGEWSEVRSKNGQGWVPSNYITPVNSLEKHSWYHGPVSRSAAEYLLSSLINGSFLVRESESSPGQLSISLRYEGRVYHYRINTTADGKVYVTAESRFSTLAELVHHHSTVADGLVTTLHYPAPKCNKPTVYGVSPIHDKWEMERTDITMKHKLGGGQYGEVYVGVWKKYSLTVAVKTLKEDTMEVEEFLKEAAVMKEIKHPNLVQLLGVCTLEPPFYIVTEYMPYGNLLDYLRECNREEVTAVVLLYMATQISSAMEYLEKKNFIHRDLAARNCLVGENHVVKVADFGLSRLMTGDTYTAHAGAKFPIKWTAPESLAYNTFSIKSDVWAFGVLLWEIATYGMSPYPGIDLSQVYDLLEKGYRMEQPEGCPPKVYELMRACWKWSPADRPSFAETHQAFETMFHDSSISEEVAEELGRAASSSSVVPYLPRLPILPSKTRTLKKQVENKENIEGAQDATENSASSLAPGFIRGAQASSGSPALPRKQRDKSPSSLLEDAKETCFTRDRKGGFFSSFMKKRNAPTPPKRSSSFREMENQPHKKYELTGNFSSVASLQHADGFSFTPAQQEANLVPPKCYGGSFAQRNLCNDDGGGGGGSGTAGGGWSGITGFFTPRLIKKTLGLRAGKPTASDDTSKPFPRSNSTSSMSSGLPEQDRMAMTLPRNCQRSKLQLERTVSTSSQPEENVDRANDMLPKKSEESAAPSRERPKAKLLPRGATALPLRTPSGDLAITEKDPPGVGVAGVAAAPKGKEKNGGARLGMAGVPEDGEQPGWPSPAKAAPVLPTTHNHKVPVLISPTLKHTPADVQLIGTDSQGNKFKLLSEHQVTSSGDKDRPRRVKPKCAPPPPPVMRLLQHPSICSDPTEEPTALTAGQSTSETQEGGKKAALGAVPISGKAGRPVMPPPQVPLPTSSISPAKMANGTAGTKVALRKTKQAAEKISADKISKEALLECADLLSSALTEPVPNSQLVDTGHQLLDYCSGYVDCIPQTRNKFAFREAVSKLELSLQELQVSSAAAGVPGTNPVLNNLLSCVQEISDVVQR
Assay: Inhibition of human recombinant ARG (48 to end residues) using EAIYAAPFAKKK as substrate incubated for 40 mins in presence of [gamma-33ATP] by radiometric scintillation counting analysis
pIC50: −log10 of the molar value.
experimentalEndpoint: pIC50

Name the value of pIC50 reported for CN(C)c1ccc(C(=O)Nc2cccc(NC(=O)COc3ccc4c(=O)ccoc4c3)c2)cc1 when tested on Tyrosine-protein kinase ABL2 (Homo sapiens, UniProt P42684).
< 5.00

----------
Target: Mitogen-activated protein kinase kinase kinase kinase 5 (Homo sapiens, UniProt Q9Y4K4)
Assay: Inhibition of recombinant full length human MAP4K5 using myelin basic protein as substrate incubated for 40 mins in presence of [gamma-33ATP by radiometric scintillation counting analysis
experimentalEndpoint: IC50

Give the measured IC50 for CN(C)c1ccc(C(=O)Nc2cccc(NC(=O)COc3ccc4c(=O)ccoc4c3)c2)cc1
> 10 µM

----------
Biological target: Mitogen-activated protein kinase 14 (Homo sapiens)
Assay: Inhibition of recombinant human full length SAPK2a using myelin basic protein as substrate incubated for 40 mins in presence of [gamma33P]ATP by radiometric scintillation counting analysis
pIC50: −log10 of the molar value.
experimentalEndpoint: pIC50

// Input: CN(C)c1ccc(C(=O)Nc2cccc(NC(=O)COc3ccc4c(=O)ccoc4c3)c2)cc1 . Output its pIC50 only.
< 5.00

----------
Molecular target: Cyclin-dependent kinase 1/cyclin B1 (Homo sapiens, UniProt P06493)
Sequence (P06493 whole entry): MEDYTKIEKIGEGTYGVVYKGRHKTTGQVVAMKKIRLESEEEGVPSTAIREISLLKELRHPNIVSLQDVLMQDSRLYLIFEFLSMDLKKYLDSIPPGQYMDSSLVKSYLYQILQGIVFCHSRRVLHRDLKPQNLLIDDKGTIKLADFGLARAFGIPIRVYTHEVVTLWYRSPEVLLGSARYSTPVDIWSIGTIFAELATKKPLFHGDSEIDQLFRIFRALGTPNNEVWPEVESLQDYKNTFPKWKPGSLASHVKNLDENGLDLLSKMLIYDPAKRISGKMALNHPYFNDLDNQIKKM
Sequence (P14635 whole entry, further chain): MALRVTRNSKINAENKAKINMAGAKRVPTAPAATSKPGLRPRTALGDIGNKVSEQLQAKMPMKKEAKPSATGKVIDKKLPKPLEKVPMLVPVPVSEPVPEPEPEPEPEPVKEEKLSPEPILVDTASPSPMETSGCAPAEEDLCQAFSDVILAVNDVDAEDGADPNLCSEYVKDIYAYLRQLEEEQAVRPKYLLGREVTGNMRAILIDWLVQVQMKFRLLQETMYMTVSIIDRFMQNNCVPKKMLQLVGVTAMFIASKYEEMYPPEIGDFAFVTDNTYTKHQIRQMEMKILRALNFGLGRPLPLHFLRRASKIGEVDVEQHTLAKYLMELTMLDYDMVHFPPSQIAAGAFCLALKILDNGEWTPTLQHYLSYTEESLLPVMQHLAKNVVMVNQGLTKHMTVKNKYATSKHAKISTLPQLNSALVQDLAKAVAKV
Test: Inhibition of recombinant full length human CDK1/CyclinB using Histone H1 as substrate incubated for 40 mins in presence of [gamma-33ATP] by radiometric scintillation counting analysis
experimentalEndpoint: IC50

Retrieve IC50 measured for CN(C)c1ccc(C(=O)Nc2cccc(NC(=O)COc3ccc4c(=O)ccoc4c3)c2)cc1 and print it.
> 10 µM

----------
Target: DNA-dependent protein kinase catalytic subunit (Homo sapiens)
Test: Inhibition of recombinant full length human DNA-PK using GST-cMyc-p53 as substrate incubated for 40 mins by fluorescence assay
experimentalEndpoint: IC50

Supply measured IC50 of CN(C)c1ccc(C(=O)Nc2cccc(NC(=O)COc3ccc4c(=O)ccoc4c3)c2)cc1 in your reply.
> 10 µM

----------
Target: Dual specificity mitogen-activated protein kinase kinase 1 (Homo sapiens, UniProt Q02750)
Sequence (Q02750 whole entry): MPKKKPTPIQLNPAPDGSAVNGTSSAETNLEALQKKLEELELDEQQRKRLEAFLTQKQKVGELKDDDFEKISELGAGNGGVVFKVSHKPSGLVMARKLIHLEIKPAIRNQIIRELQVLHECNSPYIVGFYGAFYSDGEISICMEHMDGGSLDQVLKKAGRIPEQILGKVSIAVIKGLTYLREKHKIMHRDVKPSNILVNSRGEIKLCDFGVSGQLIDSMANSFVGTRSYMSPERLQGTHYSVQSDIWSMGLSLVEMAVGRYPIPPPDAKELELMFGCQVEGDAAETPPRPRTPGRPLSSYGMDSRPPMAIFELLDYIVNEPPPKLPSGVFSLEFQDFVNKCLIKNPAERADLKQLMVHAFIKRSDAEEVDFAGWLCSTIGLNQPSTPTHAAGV
Test: Inhibition of recombinant full length human MEK1 using inactive MAPK2 as substrate incubated for 40 mins in presence of [gamma-33ATP by radiometric scintillation counting analysis
experimentalEndpoint: IC50

State IC50 on Dual specificity mitogen-activated protein kinase kinase 1 (Homo sapiens, UniProt Q02750). Entry: CN(C)c1ccc(C(=O)Nc2cccc(NC(=O)COc3ccc4c(=O)ccoc4c3)c2)cc1
> 10 µM

----------
Biological target: Casein kinase I isoform gamma-3 (Homo sapiens, UniProt Q9Y6M4, E302D/K91E/R174G)
Sequence (Q9Y6M4 whole entry K91E, the tested form may be a part, canonical isoform): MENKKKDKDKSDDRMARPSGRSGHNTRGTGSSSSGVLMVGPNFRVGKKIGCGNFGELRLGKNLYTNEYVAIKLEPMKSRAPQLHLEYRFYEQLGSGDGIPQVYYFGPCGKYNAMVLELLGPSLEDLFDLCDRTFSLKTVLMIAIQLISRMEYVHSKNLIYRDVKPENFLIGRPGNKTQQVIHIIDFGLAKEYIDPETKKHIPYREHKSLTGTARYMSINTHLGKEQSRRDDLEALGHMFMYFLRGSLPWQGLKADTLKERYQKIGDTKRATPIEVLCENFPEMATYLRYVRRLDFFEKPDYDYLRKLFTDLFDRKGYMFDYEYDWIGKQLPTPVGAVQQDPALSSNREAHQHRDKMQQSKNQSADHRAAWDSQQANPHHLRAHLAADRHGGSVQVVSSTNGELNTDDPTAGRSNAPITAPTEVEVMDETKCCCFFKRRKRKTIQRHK
Assay: Inhibition of recombinant human CK1gamma3 K91E/R174G/E302D triple mutant (1 to 330 residues) using KRRRALS(p)VAS as substrate incubated for 40 mins in presence of [gamma-33ATP] by radiometric scintillation counting analysis
pIC50: −log10 of the molar value.
experimentalEndpoint: pIC50

Provide measured pIC50 value, entry: CN(C)c1ccc(C(=O)Nc2cccc(NC(=O)COc3ccc4c(=O)ccoc4c3)c2)cc1
< 5.00

----------
Target: Serine/threonine-protein kinase ICK (Homo sapiens, UniProt Q9UPZ9)
Assay: Inhibition of human recombinant ICK (1 to 312 residues) using RRRFRPASPLRGP as substrate after 40 mins by [gamma-33ATP] by radiometric scintillation counting analysis
experimentalEndpoint: IC50

Let me know recorded IC50 for CN(C)c1ccc(C(=O)Nc2cccc(NC(=O)COc3ccc4c(=O)ccoc4c3)c2)cc1 , thanks.
> 10 µM

----------
Target: Serine/threonine-protein kinase/endoribonuclease IRE1 (Homo sapiens, UniProt O75460)
Assay: Inhibition of human recombinant IRE1 (465 to end residues) using myelin basic protein as substrate after 40 mins by [gamma-33ATP] by radiometric scintillation counting analysis
experimentalEndpoint: IC50

Name the recorded IC50 of CN(C)c1ccc(C(=O)Nc2cccc(NC(=O)COc3ccc4c(=O)ccoc4c3)c2)cc1 , assay system Serine/threonine-protein kinase/endoribonuclease IRE1 (Homo sapiens, UniProt O75460).
> 10 µM

----------
Target: Focal adhesion kinase 1 (Homo sapiens)
Sequence (Q05397 whole entry, the tested form may be a part): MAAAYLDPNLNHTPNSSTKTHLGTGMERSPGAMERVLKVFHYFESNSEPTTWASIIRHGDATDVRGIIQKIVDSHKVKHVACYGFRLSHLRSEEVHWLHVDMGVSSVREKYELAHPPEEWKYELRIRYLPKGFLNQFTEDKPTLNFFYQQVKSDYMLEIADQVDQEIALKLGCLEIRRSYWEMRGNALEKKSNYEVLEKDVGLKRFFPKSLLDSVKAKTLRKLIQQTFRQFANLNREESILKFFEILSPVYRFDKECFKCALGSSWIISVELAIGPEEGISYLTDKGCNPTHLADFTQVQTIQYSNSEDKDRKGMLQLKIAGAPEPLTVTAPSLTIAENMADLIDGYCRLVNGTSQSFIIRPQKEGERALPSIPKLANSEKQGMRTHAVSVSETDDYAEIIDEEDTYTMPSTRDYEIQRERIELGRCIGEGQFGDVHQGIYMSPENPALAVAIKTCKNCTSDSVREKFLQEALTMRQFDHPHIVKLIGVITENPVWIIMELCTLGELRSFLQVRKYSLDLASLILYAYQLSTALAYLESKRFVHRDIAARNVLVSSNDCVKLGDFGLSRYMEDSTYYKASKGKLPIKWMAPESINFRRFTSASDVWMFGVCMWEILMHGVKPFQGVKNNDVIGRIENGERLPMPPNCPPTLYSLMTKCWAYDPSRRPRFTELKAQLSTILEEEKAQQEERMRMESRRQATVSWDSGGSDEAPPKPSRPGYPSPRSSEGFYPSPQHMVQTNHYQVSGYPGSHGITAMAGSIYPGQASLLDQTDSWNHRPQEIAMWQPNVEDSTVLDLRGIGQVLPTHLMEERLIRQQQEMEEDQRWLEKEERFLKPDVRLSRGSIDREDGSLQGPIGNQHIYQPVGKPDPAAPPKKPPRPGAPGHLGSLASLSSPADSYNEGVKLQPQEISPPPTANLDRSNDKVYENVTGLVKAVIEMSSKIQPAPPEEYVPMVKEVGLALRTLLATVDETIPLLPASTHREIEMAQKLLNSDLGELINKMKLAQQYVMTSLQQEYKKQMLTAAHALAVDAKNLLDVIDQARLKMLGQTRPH
Assay: Inhibition of recombinant human FAK (411 to 686 residues) using EEEEYEEEEEEYY as substrate after 40 mins in presence of [gamma-33ATP] by radiometric scintillation counting analysis
pIC50: −log10 of the molar value.
experimentalEndpoint: pIC50

Hello, please tell me recorded pIC50 for this one: CN(C)c1ccc(C(=O)Nc2cccc(NC(=O)COc3ccc4c(=O)ccoc4c3)c2)cc1
< 5.00

----------
Molecular target: UniProt:Q8WXR4
Sequence (Q8WXR4 whole entry): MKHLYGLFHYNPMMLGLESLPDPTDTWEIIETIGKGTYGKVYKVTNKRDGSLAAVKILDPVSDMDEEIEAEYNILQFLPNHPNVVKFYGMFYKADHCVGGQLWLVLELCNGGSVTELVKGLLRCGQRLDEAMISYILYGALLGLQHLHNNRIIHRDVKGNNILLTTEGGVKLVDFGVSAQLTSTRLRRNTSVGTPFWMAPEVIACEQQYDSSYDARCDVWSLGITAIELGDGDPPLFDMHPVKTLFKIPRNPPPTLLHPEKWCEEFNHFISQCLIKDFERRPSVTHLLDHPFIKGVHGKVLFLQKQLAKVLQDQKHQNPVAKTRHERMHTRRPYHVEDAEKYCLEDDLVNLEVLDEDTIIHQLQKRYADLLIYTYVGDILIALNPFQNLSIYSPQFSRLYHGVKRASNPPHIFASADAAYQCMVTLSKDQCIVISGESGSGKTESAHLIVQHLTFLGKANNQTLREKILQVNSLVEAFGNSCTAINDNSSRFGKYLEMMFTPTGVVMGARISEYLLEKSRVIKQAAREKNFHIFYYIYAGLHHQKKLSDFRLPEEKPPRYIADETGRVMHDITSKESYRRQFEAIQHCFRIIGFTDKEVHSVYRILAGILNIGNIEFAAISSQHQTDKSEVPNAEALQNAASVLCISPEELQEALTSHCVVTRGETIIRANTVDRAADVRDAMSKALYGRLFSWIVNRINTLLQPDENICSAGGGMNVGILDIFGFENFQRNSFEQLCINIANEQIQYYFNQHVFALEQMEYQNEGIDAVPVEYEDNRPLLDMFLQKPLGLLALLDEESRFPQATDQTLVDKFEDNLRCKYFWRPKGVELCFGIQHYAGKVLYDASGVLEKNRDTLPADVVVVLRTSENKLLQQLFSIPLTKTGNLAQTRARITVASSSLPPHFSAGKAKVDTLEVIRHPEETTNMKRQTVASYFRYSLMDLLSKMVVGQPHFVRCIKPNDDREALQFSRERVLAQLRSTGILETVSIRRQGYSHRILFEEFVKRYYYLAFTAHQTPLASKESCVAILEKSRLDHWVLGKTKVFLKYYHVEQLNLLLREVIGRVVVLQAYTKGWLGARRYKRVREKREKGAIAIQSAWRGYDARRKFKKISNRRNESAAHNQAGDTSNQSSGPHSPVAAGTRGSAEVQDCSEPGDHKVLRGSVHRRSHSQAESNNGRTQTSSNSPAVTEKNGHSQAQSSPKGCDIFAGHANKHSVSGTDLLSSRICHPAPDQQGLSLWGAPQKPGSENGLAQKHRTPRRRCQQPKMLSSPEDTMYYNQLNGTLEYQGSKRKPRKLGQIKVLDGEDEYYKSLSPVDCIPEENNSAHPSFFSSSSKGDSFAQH
Assay: Inhibition of recombinant human MYO3B (1 to 326 residues) using RLGRDKYKTLRQI as substrate measured after 40 mins in presence of [gamma33P]ATP by radiometric scintillation counting analysis
experimentalEndpoint: IC50

Please report IC50 for the following compound: CN(C)c1ccc(C(=O)Nc2cccc(NC(=O)COc3ccc4c(=O)ccoc4c3)c2)cc1
> 10 µM

Origin of values: ChEMBL document CHEMBL4376834
